System: C. elegans
Assay: Nematicidal activity of single fatty acid methyl ester emulsions against Caenorhabditis elegans (Example 4)
Assay type: cell-based
Settings: 0.003% emulsion, 6 hr
quantity name: Percentage of Worm Death (%)
Reply numerically in %, unit not repeated.

Recorded results for 2 compounds are shown here.
{"compound": "CCCCCCC(O)C/C=C\\CCCCCCCC(=O)OC (centres unmarked)", "Percentage of Worm Death, %": 60}
{"compound": "CCCCCCCCC(=O)OC [Nonanoic (C9-methyl ester), pelargonic acid methyl ester, reference compound]", "Percentage of Worm Death, %": 50}

Could you now look at the following compound, please?
**Q:** Reported Percentage of Worm Death for C. elegans, given CCCCC[C@H]1O[C@H]1C/C=C\CCCCCCCC(=O)OC ?
**A:** 20

###

As shown below, each of these compounds has a reported % Worm Death (24 hr) value.
Tested on: M. incognita
Assay: Nematicidal activity of fatty acid methyl ester emulsions, spectrum (Example 8)
Type: cell-based, Meloidogyne incognita
Settings: M. incognita 2nd stage juveniles, 0.01% solution; scored at 48 hours
Protocol: Briefly, the indicated fatty acid emulsions were added and rapidly mixed by swirling. Nematode viability was scored by visual observation and motility assays 24 hours following addition of emulsions (48 hours for plant parasitic nematodes Meloidogyne and Heterodera species). The fatty acid emulsions tested were methyl esters of nonanoic (pelargonic) acid, ricinelaidic acid, ricinoleic acid, vernolic acid, linoleic acid, and oleic acid. […]
Numbers only; they are read as %.

Recorded % Worm Death (24 hr), per entry:
{"compound": "CCCCC/C=C\\C/C=C\\CCCCCCCC(=O)OC [Linoleic Acid (C18-methyl ester), linoleic acid methyl ester, reference compound]", "value units": "%", "% Worm Death (24 hr)": 20}
{"compound": "CCCCC[C@H]1O[C@H]1C/C=C\\CCCCCCCC(=O)OC [Vernolic Acid (C18-methyl ester)]", "value units": "%", "% Worm Death (24 hr)": 73}

Moving on to another compound below.
**Q:** For the compound shown here, CCCCCCC(O)C/C=C\CCCCCCCC(=O)OC (stereo not shown) [Ricinoleic Acid (C18-methyl ester)] , give the reported % Worm Death (24 hr).
**A:** 83

###

System: M. incognita
Assay: Nematicidal activity of fatty acid methyl ester emulsions against root knot nematode J2 larvae (Example 6)
Type: cell-based, Meloidogyne incognita
Settings: 0.1% emulsion; 48 hours incubation, counted about 24 hours after transfer to plates
quantity name: M. incognita (% not viable)

Worked examples follow.
{"compound": "CCCCCCCC/C=C\\CCCCCCCC(=O)OC [Oleic Acid (C18-methyl ester), oleic acid methyl ester, reference compound]", "M. incognita (% not viable)": "25%"}
{"compound": "CCCCC[C@H]1O[C@H]1C/C=C\\CCCCCCCC(=O)OC", "M. incognita (% not viable)": "100%"}
{"compound": "CCCCCCCCC(=O)OC [Nonanoic (C9-methyl ester), pelargonic acid methyl ester, reference compound]", "M. incognita (% not viable)": "100%"}

# evaluate next
**Q:** May I ask what M. incognita (% not viable) has been recorded for CCCCCCC(O)C/C=C\CCCCCCCC(=O)OC (stereo not shown) ?
**A:** 95%

###

Test system: M. javanica
Experiment: Nematicidal activity of fatty acid methyl ester emulsions, spectrum (Example 8)
Assay type: cell-based, Meloidogyne javanica
Conditions: M. javanica 2nd stage juveniles, 0.1% solution; scored at 48 hours
Below is a list of entries, each paired with its recorded % Worm Death (48 hr) value.
Express it in %; write the number only.

{"compound": "CCCCCCC(O)C/C=C/CCCCCCCC(=O)OC (stereo not shown)", "assay system": "M. javanica", "reported measurement": 100}

**Q:** Recorded % Worm Death (48 hr) for CCCCC[C@H]1O[C@H]1C/C=C\CCCCCCCC(=O)OC , please?
**A:** 90

**Q:** Here is the next compound: CCCCCCCCC(=O)OC [Nonanoic (C9-methyl ester), pelargonic acid methyl ester, reference compound]
**A:** 100

**Q:** Moving on to CCCCC/C=C\C/C=C\CCCCCCCC(=O)OC [Linoleic Acid (C18-methyl ester), linoleic acid methyl ester, reference compound]
**A:** 20
